Overview of reported Kd across a group of binders:
Molecular target: T1, EsCas13d, nuclease-dead (Eubacterium siraeum, UniProt B0MS50, R295A;H300A;R849A;H854A)
T1 sequence: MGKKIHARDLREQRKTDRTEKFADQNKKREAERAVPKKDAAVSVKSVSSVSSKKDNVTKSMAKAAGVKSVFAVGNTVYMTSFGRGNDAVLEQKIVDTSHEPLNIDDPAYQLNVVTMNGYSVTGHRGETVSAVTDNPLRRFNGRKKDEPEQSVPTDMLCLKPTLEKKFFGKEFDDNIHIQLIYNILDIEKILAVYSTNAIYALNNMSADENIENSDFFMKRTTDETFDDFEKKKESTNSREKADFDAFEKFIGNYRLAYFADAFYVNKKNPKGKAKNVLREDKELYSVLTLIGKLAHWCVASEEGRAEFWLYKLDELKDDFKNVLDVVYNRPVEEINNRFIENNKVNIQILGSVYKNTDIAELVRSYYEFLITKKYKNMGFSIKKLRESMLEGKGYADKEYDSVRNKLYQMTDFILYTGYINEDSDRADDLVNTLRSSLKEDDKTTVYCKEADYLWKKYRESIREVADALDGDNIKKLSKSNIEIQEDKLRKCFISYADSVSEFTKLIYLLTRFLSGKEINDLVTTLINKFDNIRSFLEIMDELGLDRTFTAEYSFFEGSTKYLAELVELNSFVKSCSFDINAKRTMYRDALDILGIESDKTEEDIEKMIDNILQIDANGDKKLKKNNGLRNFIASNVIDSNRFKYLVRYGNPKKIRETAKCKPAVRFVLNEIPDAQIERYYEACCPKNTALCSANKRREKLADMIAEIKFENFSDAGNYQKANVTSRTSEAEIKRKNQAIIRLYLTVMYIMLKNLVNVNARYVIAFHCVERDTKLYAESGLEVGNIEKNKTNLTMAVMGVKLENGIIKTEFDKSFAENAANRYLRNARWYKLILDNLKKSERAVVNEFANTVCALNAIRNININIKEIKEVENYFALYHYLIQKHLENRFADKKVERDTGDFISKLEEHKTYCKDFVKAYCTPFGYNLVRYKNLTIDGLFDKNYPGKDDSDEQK
Test: crRNA (strand 1, pre-loaded); Mg2+; 40 mM Tris-HCl pH 7.5, 150 mM NaCl, 6 mM MgCl2, 1 mM DTT, 0.1% Tween-20, 0.2 mg/ml BSA; 25 C; 10 min per concentration, then washed
Conditions: tags: His6-TwinStrep-SUMO cleaved; N-terminal SNAP kept (SNAP-Surface 488); label: 3' end held by stalled T7 RNA polymerase

BINDER | UNIT | Kd
target 1 U3G,G5C (mixed) RNA 1: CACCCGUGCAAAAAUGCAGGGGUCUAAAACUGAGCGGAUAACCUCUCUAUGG RNA 2: GGGAAUGGAUCCACAUCUACGAAUUCGUACCAUAGAGAGGUUAUCCCCGCACCGAGAUCGGAAGAGCACACGU | nM | 16.7
target 1 insA 3' of 19,insG 3' of 1 (mixed) RNA 1: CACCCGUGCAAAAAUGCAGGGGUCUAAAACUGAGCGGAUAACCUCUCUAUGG RNA 2: GGGAAUGGAUCCACAUCUACGAAUUCGUACCAUAAGAGAGGUUAUCCGCUCAGCCGAGAUCGGAAGAGCACACGU | nM | 20
target 3 G3C,A9G (mixed) RNA 1: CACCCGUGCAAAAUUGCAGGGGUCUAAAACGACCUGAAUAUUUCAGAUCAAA RNA 2: GGGAAUGGAUCCACAUCUACGAAUUCGUUUUUGAUCUGAAAUGUUCAGCUCUGCAGAUCGGAAGAGCACACGU | nM | 55.5
target 2 MT 5'PFS AAA 3'PFS UUU (mixed) RNA 1: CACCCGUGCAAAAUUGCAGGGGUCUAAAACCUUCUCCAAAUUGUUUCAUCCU RNA 2: GGGAAUGGAUCCACAUCUACGAAUUCAAAAGGAUGAAACAAUUUGGAGAAGUUUAGAUCGGAAGAGCACACGU | nM | 23
target 1 insU 3' of 14,insU 3' of 6 (mixed) RNA 1: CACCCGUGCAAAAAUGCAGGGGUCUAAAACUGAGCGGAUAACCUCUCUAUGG RNA 2: GGGAAUGGAUCCACAUCUACGAAUUCGUACCAUAGAGAUGGUUAUCCUGCUCACCGAGAUCGGAAGAGCACACGU | nM | 61
target 1 del16 (mixed) RNA 1: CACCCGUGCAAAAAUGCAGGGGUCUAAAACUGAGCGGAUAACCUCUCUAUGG RNA 2: GGGAAUGGAUCCACAUCUACGAAUUCGUACCAUAGGAGGUUAUCCGCUCACCGAGAUCGGAAGAGCACACGU | nM | 46
target 2 MT 5'PFS GUC 3'PFS UUU (mixed) RNA 1: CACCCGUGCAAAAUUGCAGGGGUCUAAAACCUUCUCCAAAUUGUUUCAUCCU RNA 2: GGGAAUGGAUCCACAUCUACGAAUUCGUCAGGAUGAAACAAUUUGGAGAAGUUUAGAUCGGAAGAGCACACGU | nM | 58
target 2 MT 5'PFS GCU 3'PFS UCU (mixed) RNA 1: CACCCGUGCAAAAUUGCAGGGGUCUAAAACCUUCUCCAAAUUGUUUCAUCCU RNA 2: GGGAAUGGAUCCACAUCUACGAAUUCGCUAGGAUGAAACAAUUUGGAGAAGUCUAGAUCGGAAGAGCACACGU | nM | 34
